- method.notes: Half life in ICR mouse at 20 mg/kg, po administered via oral gavage by LC-MS/MS analysis
- Assay type: ADME, organism-based
- test.settings: in vivo

smiles	unit.info	half-life
Cc1ncccc1C(=O)Nc1nc2cc(C(N)=O)ccc2n1CCCCNC(=O)OC(C)(C)C	h	13.3

====

- method.notes: Cytotoxicity against human THP1-Dual KO-STING cells assessed as cell viability incubated for 24 hrs by CellTiter 96 aqueous one solution assay relative to control
- Assay type: toxicity, cell-based
- Set-up: concentration or dose not given beside the values
- test.settings: read-out: Activity
Some compounds, each annotated with its measured viability at 24 h.
recorded.metric: viability at 24 h (%)

smiles	unit.info	experimental.result
Nc1nc2c(ncn2[C@@H]2O[C@@H]3COP(=O)(O)O[C@H]4[C@@H](O)[C@H](n5cnc6c(N)ncnc65)O[C@@H]4COP(=O)(O)O[C@H]3[C@H]2O)c(=O)[nH]1	%	97.2
Cc1ncccc1C(=O)Nc1nc2cc(C(N)=O)ccc2n1CCCCCN	%	99.3
Cc1ncccc1C(=O)Nc1nc2cc(C(N)=O)ccc2n1CCCN	%	100
Cc1ncccc1C(=O)Nc1nc2cc(C(N)=O)ccc2n1CCCCNC(=O)OC(C)(C)C	%	106

====

- method.notes: Oral bioavailability in ICR mouse at 20 mg/kg administered via oral gavage by LC-MS/MS analysis
- Assay type: ADME, organism-based
- test.settings: in vivo
recorded.metric: bioavailability

smiles	recorded.metric	experimental.result
Cc1ncccc1C(=O)Nc1nc2cc(C(N)=O)ccc2n1CCCCNC(=O)OC(C)(C)C	bioavailability	5.23%

====

- method.notes: AUC (0 to infinity) in ICR mouse at 20 mg/kg, po administered via oral gavage by LC-MS/MS analysis
- Type: ADME, organism-based
- test.settings: in vivo
recorded.metric: AUC(0-inf) (ng·h/mL)

smiles	recorded.metric	unit.info	experimental.result
Cc1ncccc1C(=O)Nc1nc2cc(C(N)=O)ccc2n1CCCCNC(=O)OC(C)(C)C	AUC(0-inf)	ng·h/mL	210

====

Some molecules, each annotated with its measured viability at 24 h.
- method.notes: Cytotoxicity against wild type human THP1-Dual cells assessed as cell viability incubated for 24 hrs by CellTiter 96 aqueous one solution assay relative to control
- Assay type: toxicity, cell-based
- Design: concentration or dose not given beside the values
- test.settings: read-out: Activity

smiles	viability at 24 h
CCc1ncccc1C(=O)Nc1nc2cc(C(N)=O)ccc2n1CCCCNC(=O)OC(C)(C)C	89.2%
CCn1nc(C)cc1C(=O)Nc1nc2cc(C(N)=O)ccc2n1CCCCn1c(NC(=O)c2cc(C)nn2CC)nc2cc(C(N)=O)ccc21	101%
CCn1nc(C)cc1C(=O)NCCCCn1c(NC(=O)c2cccnc2C)nc2cc(C(N)=O)ccc21	98.5%
COc1cc(C(N)=O)cc2nc(NC(=O)c3ccc(C(F)(F)F)nc3C)n(C/C=C/CNC(=O)OC(C)(C)C)c12	87.5%
CCn1nc(C)cc1C(=O)Nc1nc2cc(C(N)=O)ccc2n1CCCCNC(=O)OC(C)(C)C	69%
Cc1ncccc1C(=O)Nc1nc2cc(C(N)=O)ccc2n1CCCCCNC(=O)OC(C)(C)C	92.2%
CC(C)(C)OC(=O)NCCCCn1c(NC(=O)c2ccc(C(F)(F)F)nc2)nc2cc(C(N)=O)ccc21	106%
CC(=O)NCCCCn1c(NC(=O)c2cccnc2C)nc2cc(C(N)=O)ccc21	99.7%
CC(C)(C)OC(=O)NCCCCn1c(NC(=O)c2cccnc2Cl)nc2cc(C(N)=O)ccc21	105%
CC(C)(C)OC(=O)NCCCCn1c(NC(=O)c2cccnc2)nc2cc(C(N)=O)ccc21	97.4%
Cc1ncccc1C(=O)Nc1nc2cc(C(N)=O)ccc2n1CCCNC(=O)OC(C)(C)C	102%
CC(C)(C)OC(=O)NCCCCn1c(NC(=O)c2cccnc2F)nc2cc(C(N)=O)ccc21	107%
CC(C)(C)OC(=O)NCCCCn1c(NC(=O)c2cccnc2C(C)(C)C)nc2cc(C(N)=O)ccc21	91.6%
Cc1nc(C(F)(F)F)ccc1C(=O)Nc1nc2cc(C(N)=O)ccc2n1CCCCNC(=O)OC(C)(C)C	106%
Cc1ncccc1C(=O)Nc1nc2cc(C(N)=O)ccc2n1CCCCn1c(NC(=O)c2cccnc2C)nc2cc(C(N)=O)ccc21	91%
Cc1ccc(C(=O)Nc2nc3cc(C(N)=O)ccc3n2CCCCNC(=O)OC(C)(C)C)c(C)n1	112%
Cc1ccncc1C(=O)Nc1nc2cc(C(N)=O)ccc2n1CCCCNC(=O)OC(C)(C)C	88.5%
Cc1ncccc1C(=O)Nc1nc2cc(C(N)=O)ccc2n1CCCN	105%
Nc1nc2c(ncn2[C@@H]2O[C@@H]3COP(=O)(O)O[C@H]4[C@@H](O)[C@H](n5cnc6c(N)ncnc65)O[C@@H]4COP(=O)(O)O[C@H]3[C@H]2O)c(=O)[nH]1	87%
Cc1ncccc1C(=O)Nc1nc2cc(C(N)=O)ccc2n1CCCCNC(=O)c1ccccc1	101%
Cc1ccc(C(=O)Nc2nc3cc(C(N)=O)ccc3n2CCCCNC(=O)OC(C)(C)C)cn1	89.3%
Cc1cncc(C(=O)Nc2nc3cc(C(N)=O)ccc3n2CCCCNC(=O)OC(C)(C)C)c1	90.7%
CC(C)(C)OC(=O)NCCCCn1c(NC(=O)c2ccncc2)nc2cc(C(N)=O)ccc21	86.9%
COc1cc(C(N)=O)cc2nc(NC(=O)c3cccnc3C)n(C/C=C/CNC(=O)OC(C)(C)C)c12	106%
Cc1ncccc1C(=O)Nc1nc2cc(C(N)=O)ccc2n1C	82.8%
Cc1ncccc1C(=O)Nc1nc2cc(C(N)=O)ccc2n1CCCCCN	110%
CC(C)(C)OC(=O)NCCCCn1c(NC(=O)c2cccnc2C(F)(F)F)nc2cc(C(N)=O)ccc21	108%
CC(C)(C)OC(=O)NCCCCn1c(NC(=O)c2ccc(F)nc2)nc2cc(C(N)=O)ccc21	102%
CC(C)(C)OC(=O)NCCCCn1c(NC(=O)c2ccccc2)nc2cc(C(N)=O)ccc21	82.1%
Cc1ncccc1C(=O)Nc1nc2cc(C(N)=O)ccc2n1CCCCN	105%
Cc1ncccc1C(=O)Nc1nc2cc(C(N)=O)ccc2n1CCCCNC(=O)OC(C)(C)C	99.4%
